Assayed target: Fibroblast growth factor 10 (Homo sapiens)
Experiment description: compounds binding fibroblast growth factor 10 – biochemical, small-molecule microarray, 635 nm fluorescence, primary screen (AID 1102)
Measurement parameters: FGF10 binding, fluorescence 635 nm, higher = more signal
Hi there, I'd appreciate the recorded composite z-score for every entry that follows.
Answers are plain numbers.

Use the examples below as a reference point.
COC(=O)[C@@]1(Cc2ccccc2N=[N+]=[N-])N=C(c2ccc(OCCCO)cc2)O[C@H]1c1ccccc1 :: 0.818
O=C1NC(=O)C2C1C=CC(C(O)CCc1ccccc1)N2Nc1ccccn1 (stereo not drawn) :: 0.165
C#CCOC(=O)N[C@H](C=CCCCC)c1ccccc1 :: 0.605
COC(=O)c1c(CC[C@@H](CO)NC(=O)N[C@@H](C)Cn2cc(C3(O)CCCC3)nn2)oc(C(C)=O)c1C(=O)OC :: 0.308
C=C(C(=O)CC[C@H](OC(=O)c1cccnc1)c1ccc(OCCO)cc1)C(C)C :: 1.34
CCOC(=O)C[C@H]1[C@H](OC(=O)c2ccccc2-c2ccccc2)[C@@H](NC(=O)c2ccccc2)c2cc(OCCCO)ccc2N1C(=O)Cc1ccc(OC)cc1 :: 0.0268

For every record below, what is its composite z-score?
1. O=C1C2C=CC(C(O)c3cccc4ccccc34)N(Nc3ccccc3)C2C(=O)N1c1ccccc1 (stereo not drawn)
2. [N-]=[N+]=NCc1ccccc1[C@H]1OC(c2ccc(OCCCO)cc2)=N[C@@]1(Cc1ccccc1N=[N+]=[N-])C(=O)NCCN1CCOCC1

Output line:
[1.09, 1.26]

---

Experiment description: compound effects on hepatocellular carcinoma cell viability – HepG2, calcein-AM fluorescence, 48 h, basal, profiling panel (AID 1164)
Measurement parameters: higher = more signal
Outcome: rule met for z-score of at least -0.4; rule not met for anything lower.

See these solved cases before continuing.
COCCOC(=O)N1C(=O)[C@@]2(c3cc(C#CCCO)ccc31)[C@H](c1ccc(OCCO)cc1)N1[C@H](c3ccccc3)[C@H](c3ccccc3)OC(=O)[C@H]1[C@@H]2C(=O)N1CCc2cc(OC)c(OC)cc2C1 :: rule met
[N-]=[N+]=NCc1ccccc1[C@H]1OC(c2ccc(OCCCO)cc2)=N[C@@]1(Cc1ccccc1)C(N)=O :: rule met
O=C1O[C@H](c2ccccc2)[C@H](c2ccccc2)N2[C@H]1[C@@H](C(=O)N1CCN(c3ncccn3)CC1)[C@]1(C(=O)Nc3ccc(C#CCCO)cc31)[C@H]2c1ccc(OCCO)cc1 :: rule not met

Input line: Check if z-score >= -0.4 (inclusive). Item: `CC(C)NC(=O)[C@@H]1c2ccccc2C(=O)N(Cc2cc(C(F)(F)F)cc(C(F)(F)F)c2)[C@H]1c1ccc(CO)cc1`
Output line: rule met

Input line: Check if z-score >= -0.4 (inclusive). Item: `CN(C)CCCC[C@@H]1NC(=O)[C@H]2C[C@@H](C(=O)NCCCCCCNC(=O)CS)[C@@H](c3ccc(O)cc3)N2C1=O`
Output line: rule not met

Input line: Check if z-score >= -0.4 (inclusive). Item: `O=C(O)[C@@]1(Cc2ccccc2)COC(c2ccc(OCCCO)cc2)=N1`
Output line: rule met

Input line: Check if z-score >= -0.4 (inclusive). Item: `COCCOC(=O)N1C(=O)[C@@]2(c3cc(C#CCC(C(=O)OC)C(=O)OC)ccc31)[C@H](C(=O)N1CCCCCCC1)[C@H]1C(=O)O[C@H](c3ccccc3)[C@H](c3ccccc3)N1[C@@H]2c1ccc(O)cc1`
Output line: rule met

Input line: Check if z-score >= -0.4 (inclusive). Item: `CCCCC(=C=CC[C@H](O)c1cccc(OCCO)c1)C[C@H](O)COCc1ccccc1`
Output line: rule met

Input line: Check if z-score >= -0.4 (inclusive). Item: CCOC(=O)C1=CCC(c2cccc(Cl)c2)O1 (stereo not given)
Output line: rule not met

Input line: Check if z-score >= -0.4 (inclusive). Item: `COC(=O)[C@@]1(Cc2ccccc2)[C@H]2c3cc(C(=O)N4CCCC4)n(Cc4ccccc4)c3C[C@H]2CN1C(=O)c1ccccc1`
Output line: rule met

Input line: Check if z-score >= -0.4 (inclusive). Item: `COc1ccc(C(=O)Nc2ccc(CN3C(=O)[C@]4(O[C@H](CCn5cc([C@H](O)c6ccccc6)nn5)[C@@H]([Si](C)(C)c5ccc(OC)cc5)[C@@H]4C)c4ccccc43)cc2)cc1`
Output line: rule not met

---

Experiment description: calcein-AM signal in unstimulated myeloma cells – cell-based, calcein-AM fluorescence, 48 h, PK04 Diversity Set, profiling panel (AID 1166);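 further: cells grown under basal conditions without added stimulus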
Measurement parameters: RPMI8226 myeloma viability, higher = more signal
Value type: z-score
Give bare numbers.

Use the examples below as a reference point.
CCCNC(=O)[C@@]1(Sc2ccc(C)cc2)CC(=O)N(Cc2ccccc2)[C@@H]1c1ccc(CO)cc1I :: -2.52
COC(=O)[C@@]1(Cc2ccc(OC)cc2)[C@H]2c3cc(C(=O)N(C)C)n(Cc4cc(C)n(C)n4)c3C[C@H]2CN1C(=O)c1ccccc1 :: -1.77

# evaluate next
Input line: I have this molecule here, `COC(=O)[C@H]1N=C(c2ccc(OCCCO)cc2)O[C@H]1c1ccccc1CN=[N+]=[N-]` , and I need its recorded z-score.
Output line: -0.35

---

Experiment description: blood-stage malaria parasite viability loss – strain 3D7, DAPI fluorescence, 100 nL, primary screen (AID 1184);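 further: parasites grown inside human red blood cells in medium with human serum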
Measurement parameters: P. falciparum 3D7 growth, 3 d, higher = more signal
Outcome: yes for z-score of at least -2; no for anything lower.

See these solved cases before continuing.
COCCOC(=O)N1C(=O)[C@@]2(c3ccccc31)[C@H](c1ccc(OCCO)cc1)N1[C@H](c3ccccc3)[C@H](c3ccccc3)OC(=O)[C@H]1[C@@H]2C(=O)NC[C@H](O)c1ccccc1 :: yes
C=CC[C@@]1(C(=O)NCC(O)CO)N=C(c2ccc(OCCCO)cc2)O[C@@H]1c1ccccc1 (some centres undefined) :: yes

Input line: Check if z-score >= -2 (inclusive). Item: `COCCOC(=O)N1C(=O)[C@@]2(c3cc(C#CCC(C(=O)OC)C(=O)OC)ccc31)[C@H](C(=O)N1CCCCCCC1)[C@H]1C(=O)O[C@H](c3ccccc3)[C@H](c3ccccc3)N1[C@@H]2c1ccc(O)cc1`
Output line: no

Input line: Check if z-score >= -2 (inclusive). Item: `CC(C)NC(=O)[C@@]1(Cc2ccccc2I)c2ccccc2C(=O)N(Cc2ccccc2C(F)(F)F)[C@H]1c1ccc(CO)cc1`
Output line: yes

Input line: Check if z-score >= -2 (inclusive). Item: O=C1C2C=CC(C(O)c3ccccn3)N(Nc3ccccc3)C2C(=O)N1c1ccccc1 (centres undefined)
Output line: yes

Input line: Check if z-score >= -2 (inclusive). Item: Cc1ccccc1C(O)C1C=CC2C(=O)N(C)C(=O)C2N1Nc1ccc([N+](=O)[O-])cc1[N+](=O)[O-] (centres undefined)
Output line: yes

Input line: Check if z-score >= -2 (inclusive). Item: `COc1ccc(C#Cc2ccc3c(c2)[C@]2(C(=O)N3)[C@H](C(=O)O)[C@H]3C(=O)O[C@H](c4ccccc4)[C@H](c4ccccc4)N3[C@@H]2c2ccc(OCCO)cc2)cc1`
Output line: yes

Input line: Check if z-score >= -2 (inclusive). Item: `CCCNC(=O)[C@@H]1c2ccccc2C(=O)N(CC23CC4CC(CC(C4)C2)C3)[C@H]1c1ccc(CO)cc1`
Output line: no

---

System: XIP peptide (Xip251-270)
Experiment description: compounds binding XIP fragment 251-270 – biochemical, small-molecule microarray, fluorescence 635/667 nm, 0.5 µg/mL protein, primary screen (AID 1183)
Measurement parameters: fluorescence 635 nm, higher = more signal
Outcome: 1.0 for composite z-score of at least 0.5; 0.0 for anything lower.

See these solved cases before continuing.
CC1=C2[C@@H](CCc3ccccc3)OB(O)C[C@@H]2[C@@H]2C(=O)C=CC(=O)[C@@H]2C1 :: 0.0
CC(C)CN1C(=O)[C@@]2(Cc3ccccc31)c1ccccc1C(=O)N(Cc1ccccc1)[C@H]2c1ccc(CO)cc1 :: 0.0
CC(C)(C)OC(=O)CC[C@@]1(C(=O)N2CCCCC2)N=C(c2ccc(OCCCO)cc2)O[C@@H]1c1ccccc1N=[N+]=[N-] :: 1.0

Input line: Check if composite z-score >= 0.5 (inclusive). Item: `CCOC(=O)C1=CC[C@@H](c2ccccc2)N(S(=O)(=O)c2ccc(C)cc2)[C@H]1C=C(C)C`
Output line: 1.0

Input line: Check if composite z-score >= 0.5 (inclusive). Item: C=CCC(OC(C)=O)[C@@H]1[C@@H](N(Cc2cccc3ccccc23)C(=O)c2ccc(C)cc2)c2cc(OCCCO)ccc2N1C(=O)c1ccc2ccccc2c1 (stereo partly drawn)
Output line: 1.0

Input line: Check if composite z-score >= 0.5 (inclusive). Item: `O=C(N1CCOCC1)[C@@]1(CCS(=O)(=O)c2ccccc2)COC(c2ccc(OCCCO)cc2)=N1`
Output line: 1.0

Input line: Check if composite z-score >= 0.5 (inclusive). Item: `COc1ccc([Si](C)(C)[C@@H]2[C@@H](CCO)O[C@]3(C(=O)N(Cc4ccc(N5C(=O)c6ccccc6Oc6ccccc65)cc4)c4ccccc43)[C@H]2C)cc1`
Output line: 0.0

Input line: Check if composite z-score >= 0.5 (inclusive). Item: `CCCC=C(CCC)[C@@H](NS(=O)(=O)c1ccccc1)c1ccc(C(F)(F)F)cc1`
Output line: 1.0
